- Test system: CCL-1 (murine fibroblasts)
- Test protocol: MTT cytotoxicity against normal CCL-1 cells
- Type: cell-based
- Measurement parameters: Mus musculus; normal murine fibroblast cell line; MTT, 72 h; ± SD; read-out: IC50 CCL-1
- Text: A standard colorimetric MTT assay was used to evaluate the anticancer activity of the newly synthesized 1H-benzimidazol-2-yl hydrazone derivatives against human malignant cell lines of different histological origin, namely MCF-7 (ER-positive breast adenocarcinoma) and AR-230 (BCR-ABL positive chronic myeloid leukemia), using podophyllotoxin as a reference drug. […]
Readout label: IC50 (µM)
State just the number; it will be interpreted in µM.

Challenge: What does the record list as IC50 for `COc1ccc(/C=N/Nc2nc3ccccc3[nH]2)c(O)c1` ?
Response given: 102

Challenge: What does the record list as IC50 for `Oc1ccc(/C=N/Nc2nc3ccccc3[nH]2)cc1O` ?
Response given: 113

###

- Target or test system: porcine brain tubulin (Sus scrofa, UniProt P02550+P02554)
- Construct: The standard reaction mixture contains 95 μL of 4 mg.mL^−1 porcine brain tubulin; purchased Cytoskeleton, USA BK004P; host or cells: porcine brain (tissue-purified)
- Sequence (P02550 whole entry): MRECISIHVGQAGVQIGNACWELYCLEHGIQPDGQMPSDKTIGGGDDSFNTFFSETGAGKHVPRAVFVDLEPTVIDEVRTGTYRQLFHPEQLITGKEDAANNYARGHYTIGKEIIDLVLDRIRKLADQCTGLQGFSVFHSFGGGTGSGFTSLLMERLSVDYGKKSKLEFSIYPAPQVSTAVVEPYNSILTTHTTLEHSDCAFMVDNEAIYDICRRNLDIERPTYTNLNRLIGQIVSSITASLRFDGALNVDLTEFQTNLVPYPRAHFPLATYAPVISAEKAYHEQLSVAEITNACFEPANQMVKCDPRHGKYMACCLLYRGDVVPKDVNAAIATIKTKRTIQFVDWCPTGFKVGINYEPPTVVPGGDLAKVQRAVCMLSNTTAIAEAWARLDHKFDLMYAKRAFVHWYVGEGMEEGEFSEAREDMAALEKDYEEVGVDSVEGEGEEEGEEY
- Sequence (P02554 whole entry): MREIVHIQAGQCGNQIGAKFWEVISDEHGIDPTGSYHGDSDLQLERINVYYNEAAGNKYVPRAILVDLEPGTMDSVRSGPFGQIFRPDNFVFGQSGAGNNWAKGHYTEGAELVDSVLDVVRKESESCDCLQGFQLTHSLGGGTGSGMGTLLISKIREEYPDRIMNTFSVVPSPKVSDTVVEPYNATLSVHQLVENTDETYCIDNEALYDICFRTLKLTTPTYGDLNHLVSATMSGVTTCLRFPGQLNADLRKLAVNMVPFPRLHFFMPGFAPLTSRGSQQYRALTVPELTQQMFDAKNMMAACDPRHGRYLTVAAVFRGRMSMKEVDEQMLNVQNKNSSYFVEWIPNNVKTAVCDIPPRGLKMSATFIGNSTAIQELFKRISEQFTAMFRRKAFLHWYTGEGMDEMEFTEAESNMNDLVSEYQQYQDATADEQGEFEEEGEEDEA
- Test protocol: In vitro tubulin polymerization assay (turbidity at 340 nm)
- Type: biochemical
- Measurement parameters: 10 µM compound; 37 °C, 90 min, turbidity 340 nm
Measured Lag Time of individual entries
Form field: result (number plus unit)

Challenge: What does the record list as Lag Time for `COc1cccc(OC)c1/C=N/Nc1nc2ccccc2[nH]1` ?
Response given: 1000 s

Challenge: What does the record list as Lag Time for `COc1ccc(/C=N/Nc2nc3ccccc3[nH]2)cc1` ?
Response given: 807 s

Challenge: What does the record list as Lag Time for `COc1cc(/C=N/Nc2nc3ccccc3[nH]2)cc(OC)c1OC` ?
Response given: 988 s

###

- Target or test system: porcine brain tubulin (Sus scrofa, UniProt P02550+P02554)
- Construct: The standard reaction mixture contains 95 μL of 4 mg.mL^−1 porcine brain tubulin; purchased Cytoskeleton, USA BK004P; host or cells: porcine brain (tissue-purified)
- Test protocol: In vitro tubulin polymerization assay (turbidity at 340 nm)
- Assay type: biochemical
- Measurement parameters: 10 µM compound; 37 °C, 90 min, turbidity 340 nm
// boundary case: Initial Rate of the Exponential Phase, Signal Response equal to 20 a.u.s^−1 × 10^−6 maps to 0.0; strictly smaller maps to 1.0

The following compounds have reported results that may help.
Compound | Discrete label
COc1cc(/C=N/Nc2nc3ccccc3[nH]2)cc(OC)c1OC | 0.0
COc1cccc(OC)c1/C=N/Nc1nc2ccccc2[nH]1 | 1.0
Oc1cccc(/C=N/Nc2nc3ccccc3[nH]2)c1O | 1.0
COc1ccc(/C=N/Nc2nc3ccccc3[nH]2)cc1O | 1.0
CC(=O)O[C@H]1C(=O)[C@@]2(C)[C@H]([C@H](OC(=O)c3ccccc3)[C@]3(O)C[C@H](OC(=O)[C@H](O)[C@@H](NC(=O)c4ccccc4)c4ccccc4)C(C)=C1C3(C)C)[C@]1(OC(C)=O)CO[C@@H]1C[C@@H]2O [paclitaxel, reference compound] | 0.0
Oc1ccc(/C=N/Nc2nc3ccccc3[nH]2)c(O)c1 | 1.0
Oc1ccc(/C=N/Nc2nc3ccccc3[nH]2)cc1O | 1.0
COc1cccc(/C=N/Nc2nc3ccccc3[nH]2)c1O | 1.0

Challenge: Take the compound `COc1ccc(/C=N/Nc2nc3ccccc3[nH]2)cc1` and say whether its Initial Rate of the Exponential Phase, Signal Response is less than 20 a.u.s^−1 × 10^−6.
Response given: 1.0

Challenge: Take the compound `COc1ccc(/C=N/Nc2nc3ccccc3[nH]2)c(O)c1` and say whether its Initial Rate of the Exponential Phase, Signal Response is less than 20 a.u.s^−1 × 10^−6.
Response given: 1.0

Challenge: Take the compound COC(=O)Nc1nc2ccc(C(=O)c3cccs3)cc2[nH]1 [nocodazole, reference compound] and say whether its Initial Rate of the Exponential Phase, Signal Response is less than 20 a.u.s^−1 × 10^−6.
Response given: 0.0

Challenge: Take the compound `COc1cc(/C=N/Nc2nc3ccccc3[nH]2)cc(OC)c1` and say whether its Initial Rate of the Exponential Phase, Signal Response is less than 20 a.u.s^−1 × 10^−6.
Response given: 0.0

Challenge: Take the compound `Oc1ccccc1/C=N/Nc1nc2ccccc2[nH]1` and say whether its Initial Rate of the Exponential Phase, Signal Response is less than 20 a.u.s^−1 × 10^−6.
Response given: 1.0
